Entries and their IC50 values follow.
biological target: DP4.1 (HLA-DPA1*01:03/DPB1*04:01) (Homo sapiens, UniProt P04440+P20036); experiment: fluorescence polarization competition binding assay, DP4.1; details: fluorescence polarization competition; soluble DP4.1-Clip 250 nM, 25 nM Alexa488 oxytocinase probe peptide, 500 nM HLA-DM, 24 h 37°C; mean of two independent experiments; read-out: Mean IC50, DPA*01:03/DPB1*04:01
Attribute Measured: IC50 (µM)

compound="CC(C)C[C@H](NC(=O)[C@@H](NC(=O)[C@@H]1CCCN1C(=O)[C@@H](N)CC(N)=O)C(C)C)C(=O)N1CCC[C@H]1C(=O)N[C@@H](Cc1ccccc1)C(=O)N[C@@H](CC(N)=O)C(=O)N[C@@H](CC(=O)O)C(=O)NCC(=O)N[C@H](C(=O)N[C@@H](Cc1ccc(O)cc1)C(=O)N[C@@H](Cc1ccccc1)C(=O)N[C@@H](C)C(=O)N[C@@H](CO)C(=O)N[C@H](C(=O)N[C@@H](CCC(=O)O)C(=O)O)[C@@H](C)O)C(C)C [S#17 (CoV2)]" attribute_measured=IC50 unit_symbol=µM meas_value=76
compound="CC(C)C[C@H](NC(=O)[C@H](Cc1ccccc1)NC(=O)[C@@H](NC(=O)[C@@H](NC(=O)CNC(=O)[C@H](Cc1c[nH]cn1)NC(=O)[C@@H]1CCCN1C(=O)[C@H](C)N)C(C)C)C(C)C)C(=O)N[C@@H](Cc1c[nH]cn1)C(=O)N[C@H](C(=O)N[C@H](C(=O)N[C@@H](Cc1ccc(O)cc1)C(=O)N[C@H](C(=O)N1CCC[C@H]1C(=O)N[C@@H](C)C(=O)N[C@@H](CCC(N)=O)C(=O)O)C(C)C)[C@@H](C)O)C(C)C [S#212 (CoV2)]" attribute_measured=IC50 unit_symbol=µM meas_value=253
compound="CC[C@H](C)[C@H](NC(=O)[C@H](CO)NC(=O)[C@H](CCC(N)=O)NC(=O)[C@H](CO)NC(=O)[C@H](C)NC(=O)[C@@H](NC(=O)[C@@H](N)CO)C(C)C)C(=O)N[C@H](C(=O)N[C@@H](C)C(=O)N[C@@H](Cc1ccc(O)cc1)C(=O)N[C@H](C(=O)N[C@@H](CCSC)C(=O)N[C@@H](CO)C(=O)N[C@@H](CC(C)C)C(=O)NCC(=O)N[C@@H](C)C(=O)O)[C@@H](C)O)[C@@H](C)CC [S#138 (CoV2)]" attribute_measured=IC50 unit_symbol=µM meas_value=438
compound="CC[C@H](C)[C@H](NC(=O)[C@H](Cc1ccccc1)NC(=O)[C@@H](N)CO)C(=O)N[C@@H](CCC(=O)O)C(=O)N[C@@H](CC(=O)O)C(=O)N[C@@H](CC(C)C)C(=O)N[C@@H](CC(C)C)C(=O)N[C@@H](Cc1ccccc1)C(=O)N[C@@H](CC(N)=O)C(=O)N[C@@H](CCCCN)C(=O)N[C@H](C(=O)N[C@H](C(=O)N[C@@H](CC(C)C)C(=O)N[C@@H](C)C(=O)N[C@@H](CC(=O)O)C(=O)N[C@@H](C)C(=O)O)[C@@H](C)O)C(C)C [S#164 (CoV2)]" attribute_measured=IC50 unit_symbol=µM meas_value=128
compound="CC[C@H](C)[C@H](NC(=O)[C@H](Cc1ccccc1)NC(=O)[C@H](CO)NC(=O)[C@H](CCCNC(=N)N)NC(=O)[C@H](CCCCN)NC(=O)[C@H](CO)NC(=O)[C@@H]1CCCN1C(=O)[C@@H](N)CCCCN)C(=O)N[C@@H](CCC(=O)O)C(=O)N[C@@H](CC(=O)O)C(=O)N[C@@H](CC(C)C)C(=O)N[C@@H](CC(C)C)C(=O)N[C@@H](Cc1ccccc1)C(=O)N[C@@H](CC(N)=O)C(=O)N[C@@H](CCCCN)C(=O)N[C@H](C(=O)O)C(C)C [S#163 (CoV2)]" attribute_measured=IC50 unit_symbol=µM meas_value=0.29
